Taken from patent US20050250677A1.

Test system: HIV-1 (IIIB)
experiment.notes: Inhibition of HIV-1 (IIIB)-induced cytopathicity (giant cell formation) in CEM cells
Assay type: cell-based
reported.conditions: read-out: EC50 HIV-1 (concentration required to inhibit HIV-induced giant cell formation by 50%); HIV-1, CEM cell cultures
Reported values of EC50 for individual entries
measured.quantity: EC50 (µM)

INSERT INTO results (molecule, result_unit, recorded_value) VALUES
  ('CNC(CC(C)C)C(=O)NC1C(=O)NC(CC(N)=O)C(=O)NC2C(=O)NC3C(=O)NC(C(=O)NC(C(=O)O)c4cc(O)c(CN5CCN(Cc6ccc(-c7ccccc7)cc6)CC5)c(O)c4-c4cc3ccc4O)C(O)c3ccc(cc3)Oc3cc2cc(c3O)Oc2ccc(cc2Cl)C1O (stereo not shown) [Compound 6]', 'µM', 5.5),
  ('CCCCCCCCCCNC(=O)C(N)CCCCNCc1c(O)cc2c(c1O)-c1cc(ccc1O)C1NC(=O)C3NC(=O)C4NC(=O)C(Cc5ccc(c(Cl)c5)Oc5cc3cc(c5O)Oc3ccc(cc3Cl)C(O)C(NC1=O)C(=O)NC2C(=O)NCCCN(C)C)NC(=O)C(N)c1ccc(O)c(c1)Oc1cc(O)cc4c1 (stereo not shown) [Compound 16]', 'µM', 3.5),
  ('CCCCc1ccc(CNCc2c(O)cc3c(c2O)-c2cc(ccc2O)C2NC(=O)C4NC(=O)C5NC(=O)C(Cc6ccc(c(Cl)c6)Oc6cc4cc(c6O)Oc4ccc(cc4Cl)C(O)C(NC2=O)C(=O)NC3C(=O)NC)NC(=O)C(N)c2ccc(O)c(c2)Oc2cc(O)cc5c2)cc1 (stereo not shown) [Compound 48]', 'µM', 9.7),
  ('CC(NC(=O)C1NC(=O)C2NC(=O)C(NC(=O)C3NC(=O)C4NC(=O)C(Cc5ccc(c(Cl)c5)Oc5cc3cc(c5O)Oc3ccc(cc3Cl)C2O)NC(=O)C(N)c2ccc(O)c(c2)Oc2cc(O)cc4c2)c2ccc(O)c(c2)-c2c(O)cc(O)cc21)C12CC3CC(CC(C3)C1)C2 (stereo not shown) [Compound 160]', 'µM', 3.3);

* * *

System: HIV-2(ROD)
experiment.notes: Inhibition of HIV-2 (ROD)-induced cytopathicity (giant cell formation) in CEM cells
Type: cell-based
reported.conditions: read-out: EC50 HIV-2 (concentration required to inhibit HIV-induced giant cell formation by 50%); HIV-2, CEM cell cultures
pEC50: −log10 of the molar value.
Reported values of pEC50 for individual entries
measured.quantity: pEC50

INSERT INTO results (molecule, study_system, readout_qualifier, recorded_value) VALUES
  ('CCCCc1ccc(CNC2C(Oc3c4cc5cc3Oc3ccc(cc3Cl)C(O)C3NC(=O)C(NC(=O)C5NC(=O)C5NC(=O)C(Cc6ccc(cc6)O4)NC(=O)C(NC)c4ccc(O)c(c4)Oc4cc(O)c(Cl)c5c4)c4ccc(O)c(c4)-c4c(O)cc(O)cc4C(C(=O)NCCCN(C)C)NC3=O)OC(C(=O)NCCCN(C)C)C(O)C2O)cc1 (stereo not shown)', 'HIV-2(ROD)', '<', 4.30),
  ('NC1C(=O)NC2Cc3ccc(c(Cl)c3)Oc3cc4cc(c3O)Oc3ccc(cc3Cl)C(O)C3NC(=O)C(NC(=O)C4NC(=O)C(NC2=O)c2cc(O)cc(c2)Oc2cc1ccc2O)c1ccc(O)c(c1)-c1c(O)cc(O)cc1C(C(=O)N(C(=O)NC1CCCCC1)C1CCCCC1)NC3=O (stereo not shown)', 'HIV-2(ROD)', '=', 5.00),
  ('CCCCc1ccc(CN2CCN(Cc3c(O)cc4c(c3O)-c3cc(ccc3O)C3NC(=O)C5NC(=O)C6NC(=O)C(Cc7ccc(c(Cl)c7)Oc7cc5cc(c7O)Oc5ccc(cc5Cl)C(O)C(NC3=O)C(=O)NC4C(=O)NC)NC(=O)C(N)c3ccc(O)c(c3)Oc3cc(O)cc6c3)CC2)cc1 (stereo not shown)', 'HIV-2(ROD)', '=', 5.52),
  ('NC1C(=O)NC2Cc3ccc(c(Cl)c3)Oc3cc4cc(c3O)Oc3ccc(cc3Cl)C(O)C3NC(=O)C(NC(=O)C4NC(=O)C(NC2=O)c2cc(O)cc(c2)Oc2cc1ccc2O)c1ccc(O)c(c1)-c1c(O)cc(O)cc1C(C(=O)NCC12CC4CC(CC(C4)C1)C2)NC3=O (stereo not shown)', 'HIV-2(ROD)', '=', 5.15),
  ('CNC(=O)C1NC(=O)C2NC(=O)C(NC(=O)C3NC(=O)C4NC(=O)C(Cc5ccc(c(Cl)c5)Oc5cc3cc(c5O)Oc3ccc(cc3Cl)C2O)NC(=O)C(N)c2ccc(O)c(c2)Oc2cc(O)cc4c2)c2ccc(O)c(c2)-c2c1cc(O)c(CNC1C3CC4CC(C3)CC1C4)c2O (stereo not shown)', 'HIV-2(ROD)', '=', 4.77),
  ('C[C@@H](NC(=O)[C@@H](C)NC(=O)CCCCCNC(=O)C1NC(=O)C2NC(=O)C(NC(=O)C3NC(=O)C4NC(=O)C(Cc5ccc(c(Cl)c5)Oc5cc3cc(c5O)Oc3ccc(cc3Cl)C2O)NC(=O)C(NC(=O)OC(C)(C)C)c2ccc(O)c(c2)Oc2cc(O)cc4c2)c2ccc(O)c(c2)-c2c(O)cc(O)cc21)C(=O)O (stereo partly shown)', 'HIV-2(ROD)', '=', 4.60),
  ('NCCCCCCNC(=O)C1NC(=O)C2NC(=O)C(NC(=O)C3NC(=O)C4NC(=O)C(Cc5ccc(c(Cl)c5)Oc5cc3cc(c5O)Oc3ccc(cc3Cl)C2O)NC(=O)C(N)c2ccc(O)c(c2)Oc2cc(O)cc4c2)c2ccc(O)c(c2)-c2c(O)cc(O)cc21 (stereo not shown)', 'HIV-2(ROD)', '=', 4.76);
